Where do these numbers come from? They come from ChEMBL document CHEMBL1926626.

test system: A549; test: Anticancer activity against human A549 cells after 48 hrs by MTT assay; details: A549, 48 h
pIC50: −log10 of the molar value.
endpoint: pIC50

[a] COc1cc2c(cc1OCCCCCCN1c3cccc4cccc(c34)S1(=O)=O)N=C[C@@H]1CCCN1C2=O
[b] COc1cc2c(cc1OCCCCCCN1C(=O)c3cccc4cccc1c34)N=C[C@@H]1CCCN1C2=O
Inquiry: Form: Entry with minimum pIC50 (choose one): a / b Choose, then provide that item's label.
Reply text: b

---

test system: HEK293; assay: Cytotoxicity activity against human HEK293 cells after 48 hrs by MTT assay; assay type: cell-based; settings: hek293, 48 h
endpoint: Activity

Past entries and their recorded results:
> print(dat)
                                entrysmiles  valuemeasured
1  COc1cc2c(cc1OCCCCCn1c(=C(C#N)C#N)c3cccc4cccc1c43)N=C[C@@H]1CCCN1C2=O      Non-toxic
2  COc1cc2c(cc1OCCCCCCn1c(=C(C#N)C#N)c3cccc4cccc1c43)N=C[C@@H]1CCCN1C2=O      Non-toxic
3  COc1cc2c(cc1OCCCCCN1C(=O)c3cccc4cccc1c34)N=C[C@@H]1CCCN1C2=O      Non-toxic
4  COc1cc2c(cc1OCCCCN1C(=O)c3cccc4cccc1c34)N=C[C@@H]1CCCN1C2=O      Non-toxic
5  COc1cc2c(cc1OCCCCn1c(=C(C#N)C#N)c3cccc4cccc1c43)N=C[C@@H]1CCCN1C2=O      Non-toxic
6  COc1cc2c(cc1OCCCCCN1c3cccc4cccc(c34)S1(=O)=O)N=C[C@@H]1CCCN1C2=O      Non-toxic

Lab note: `COc1cc2c(cc1OCCCCCCN1C(=O)c3cccc4cccc1c34)N=C[C@@H]1CCCN1C2=O` gave Activity of Non-toxic

Query `COc1cc2c(cc1OCCCn1c(=C(C#N)C#N)c3cccc4cccc1c43)N=C[C@@H]1CCCN1C2=O` yields Activity of Non-toxic

---

tested on: Nucleic Acid; experiment: Binding affinity to calf thymus DNA assessed as change in melting temperature at compound:DNA molar ratio of 1:5 after 18 hrs at 37 degC by thermal denaturation assay (RVb = 0.3 to 3.1 degC); type: nucleic-acid assay; details: Bos taurus
endpoint: ΔTm (°C)

[P] COc1cc2c(cc1OCCCCCCn1c(=C(C#N)C#N)c3cccc4cccc1c43)N=C[C@@H]1CCCN1C2=O
[Q] COc1cc2c(cc1OCCCN1c3cccc4cccc(c34)S1(=O)=O)N=C[C@@H]1CCCN1C2=O
Inquiry: Returns: the argument ( P or Q ) having the larger ΔTm. Provide the label of your selected option as the answer.
Reply text: Q

---

test system: A549; assay: Anticancer activity against human A549 cells after 48 hrs by MTT assay; conditions: A549, 48 h
pIC50: −log10 of the molar value.
endpoint: pIC50

> print(dat)
                                entrysmiles  endpoint  valuemeasured
1  COc1cc2c(cc1OCCCCCN1C(=O)c3cccc4cccc1c34)N=C[C@@H]1CCCN1C2=O     pIC50           4.66
2  COc1cc2c(cc1OCCCCCCn1c(=C(C#N)C#N)c3cccc4cccc1c43)N=C[C@@H]1CCCN1C2=O     pIC50           4.72
3         COc1cc2c(cc1O)N=C[C@@H]1CCCN1C2=O     pIC50           5.95
4  COc1cc2c(cc1OCCCn1c(=C(C#N)C#N)c3cccc4cccc1c43)N=C[C@@H]1CCCN1C2=O     pIC50           5.31
5  COc1cc2c(cc1OCCCCn1c(=C(C#N)C#N)c3cccc4cccc1c43)N=C[C@@H]1CCCN1C2=O     pIC50           4.59

[a] COc1cc2c(cc1OCCCN1C(=O)c3cccc4cccc1c34)N=C[C@@H]1CCCN1C2=O
[b] COc1cc2c(cc1OCCCCCn1c(=C(C#N)C#N)c3cccc4cccc1c43)N=C[C@@H]1CCCN1C2=O
Inquiry: Lab notebook, comparison: a versus b , higher pIC50 goes to which? Answer by stating the label of the chosen item.
Reply text: b

[A] COc1cc2c(cc1OCCCCN1C(=O)c3cccc4cccc1c34)N=C[C@@H]1CCCN1C2=O
[B] COc1cc2c(cc1OCCCCN1c3cccc4cccc(c34)S1(=O)=O)N=C[C@@H]1CCCN1C2=O
Inquiry: Which record shows the lower pIC50: the first, A , or the second, B ? // respond with label for picked entry
Reply text: B

---

system: Nucleic Acid; experiment: Binding affinity to calf thymus DNA assessed as change in melting temperature at compound:DNA molar ratio of 1:5 after 18 hrs at 37 degC by thermal denaturation assay (RVb = 0.3 to 3.1 degC); format: nucleic-acid assay; settings: Bos taurus
endpoint: ΔTm (°C)

> print(dat)
                                entrysmiles  endpoint  valuemeasured
1  COc1cc2c(cc1OCCCCCN1C(=O)c3cccc4cccc1c34)N=C[C@@H]1CCCN1C2=O       ΔTm            5.2
2  COc1cc2c(cc1OCCCCCCN1c3cccc4cccc(c34)S1(=O)=O)N=C[C@@H]1CCCN1C2=O       ΔTm            7.6
3  COc1cc2c(cc1OCCCCN1c3cccc4cccc(c34)S1(=O)=O)N=C[C@@H]1CCCN1C2=O       ΔTm            3.9

[A] COc1cc2c(cc1OCCCCCCN1C(=O)c3cccc4cccc1c34)N=C[C@@H]1CCCN1C2=O
[B] COc1cc2c(cc1OCCCn1c(=C(C#N)C#N)c3cccc4cccc1c43)N=C[C@@H]1CCCN1C2=O
Inquiry: Please state the entry with greater ΔTm among A and B . Output the label that corresponds to your choice.
Reply text: B

[A] COc1cc2c(cc1OCCCCn1c(=C(C#N)C#N)c3cccc4cccc1c43)N=C[C@@H]1CCCN1C2=O
[B] COc1cc2c(cc1OCCCCN1C(=O)c3cccc4cccc1c34)N=C[C@@H]1CCCN1C2=O
Inquiry: Lab notebook, comparison: A versus B , higher ΔTm goes to which? Let me know the label of the one you choose.
Reply text: B

[A] COc1cc2c(cc1OCCCCCN1c3cccc4cccc(c34)S1(=O)=O)N=C[C@@H]1CCCN1C2=O
[B] COc1cc2c(cc1OCCCCCn1c(=C(C#N)C#N)c3cccc4cccc1c43)N=C[C@@H]1CCCN1C2=O
Inquiry: Smaller ΔTm value, A vs B ? // return label of chosen record
Reply text: B
